Catalogue of compounds with associated selectivity ratio
assay: Selectivity index, ratio of IC50 for CHO cells to IC50 for chloroquine-sensitive asexual blood stage of Plasmodium falciparum NF54 infected in human RBC; assay type: toxicity; conditions: Chinese hamster, read-out: Ratio IC50
Provide a numeric answer; units are not to be included.

{"Item smiles": "N#Cc1c(C(F)(F)F)cc(NCc2ccco2)n2c1nc1cc(Cl)c(Cl)cc12", "Reported": 10}
{"Item smiles": "N#Cc1c(C(F)(F)F)cc(NCc2ccc(F)cc2)n2c1nc1cc(Cl)c(Cl)cc12", "Reported": 30}
{"Item smiles": "N#Cc1c(C(F)(F)F)cc(NCc2cccs2)n2c1nc1cc(Cl)c(Cl)cc12", "Reported": 27}
{"Item smiles": "N#Cc1c(C(F)(F)F)cc(NCc2ccccc2F)n2c1nc1cc(Cl)c(Cl)cc12", "Reported": 25}
{"Item smiles": "N#Cc1c(C(F)(F)F)cc(NCc2ccccn2)n2c1nc1cc(Cl)c(Cl)cc12", "Reported": 0.5}
{"Item smiles": "N#Cc1c(C(F)(F)F)cc(NCc2ccc(F)cc2)n2c1nc1ccccc12", "Reported": 35}
{"Item smiles": "N#Cc1c(C(F)(F)F)cc(NCc2ccc(OC(F)(F)F)cc2)n2c1nc1cc(Cl)c(Cl)cc12", "Reported": 11}
{"Item smiles": "Cc1ccc(CNc2cc(C(F)(F)F)c(C#N)c3nc4cc(Cl)c(Cl)cc4n23)cc1", "Reported": 15}
{"Item smiles": "Cc1ccc(CNc2cc(C(F)(F)F)c(C#N)c3nc4ccccc4n23)cc1", "Reported": 17}
{"Item smiles": "N#Cc1c(C(F)(F)F)cc(NCc2cccc(F)c2)n2c1nc1cc(Cl)c(Cl)cc12", "Reported": 37}

Query :: For the compound shown here, N#Cc1c(C(F)(F)F)cc(Nc2ccc(OC(F)(F)F)cc2)n2c1nc1ccccc12 , give the reported selectivity ratio.
Result :: 103

====

Catalogue of compounds with associated half-life at 0.1 µM
assay: Half life in human liver microsomes at 0.1 uM in presence of NADPH by LC-MS/MS analysis; conditions: liver microsomes

Consider the worked cases shown below.
{"Item smiles": "N#Cc1c(C(F)(F)F)cc(NCc2ccccn2)n2c1nc1cc(Cl)c(Cl)cc12", "Reported": "1.05 h"}
{"Item smiles": "N#Cc1c(C(F)(F)F)cc(NCc2ccco2)n2c1nc1cc(Cl)c(Cl)cc12", "Reported": "> 2.5 h"}
{"Item smiles": "N#Cc1c(C(F)(F)F)cc(NCc2ccc(OC(F)(F)F)cc2)n2c1nc1cc(Cl)c(Cl)cc12", "Reported": "> 2.5 h"}
{"Item smiles": "N#Cc1c(C(F)(F)F)cc(NCc2ccc(F)cc2)n2c1nc1cc(Cl)c(Cl)cc12", "Reported": "> 2.5 h"}

Query :: For the compound shown here, N#Cc1c(C(F)(F)F)cc(Nc2ccc(OC(F)(F)F)cc2)n2c1nc1ccccc12 , give the reported half-life at 0.1 µM.
Result :: > 2.5 h

Query :: For the compound shown here, N#Cc1c(C(F)(F)F)cc(NCc2ccccc2F)n2c1nc1cc(Cl)c(Cl)cc12 , give the reported half-life at 0.1 µM.
Result :: > 2.5 h

====

Catalogue of compounds with associated remaining at 0.5 h, 0.1 µM
test: Metabolic stability in human liver microsomes assessed as parent compound remaining at 0.1 uM after 30 mins in presence of NADPH by LC-MS/MS analysis; conditions: liver microsomes
State just the number; it will be interpreted in %.

Consider the worked cases shown below.
{"Item smiles": "N#Cc1c(C(F)(F)F)cc(NCc2ccc(F)cc2)n2c1nc1cc(Cl)c(Cl)cc12", "remaining at 0.5 h, 0.1 µM / %": 102}
{"Item smiles": "N#Cc1c(C(F)(F)F)cc(NCc2ccccc2F)n2c1nc1cc(Cl)c(Cl)cc12", "remaining at 0.5 h, 0.1 µM / %": 97}

Query :: For the compound shown here, N#Cc1c(C(F)(F)F)cc(NCc2ccco2)n2c1nc1cc(Cl)c(Cl)cc12 , give the reported remaining at 0.5 h, 0.1 µM.
Result :: 100

Query :: For the compound shown here, N#Cc1c(C(F)(F)F)cc(NCc2ccccn2)n2c1nc1cc(Cl)c(Cl)cc12 , give the reported remaining at 0.5 h, 0.1 µM.
Result :: 72
